# Tested on: UACC-257
# assay.name: NCI tumour cell line growth inhibition, 48 h
Calls of active or inactive are those of the source. No stated cut-off is given here; in the data, active = GI50 up to about 1.1 µM and inactive = higher.
Please answer using one outcome listed in active, inactive

compound: O=c1oc2ccc(Cl)cc2cc1-c1cn2cc(Cl)ccc2n1
category: inactive

How was CCCCCCCN(CCCCCCC)CC(O)c1cc2ccccc2c2cc(Br)ccc12 (centres undefined) classified in this test?
inactive

How was `Cc1ccc(Cc2n[nH]c(=O)[nH]2)cc1` classified in this test?
inactive

How was `Cc1ccccc1NC(=O)CSc1nnc(-c2ccc(/N=C\c3ccc(Cl)cc3)cc2)o1` classified in this test?
inactive

How was `CCOC(=O)NNC(=O)NCc1cccc(CNC(=O)NNC(=O)OCC)c1` classified in this test?
inactive

How was `Cc1ccc(/C=N/n2c(=O)[nH]c3ccccc3c2=O)cc1` classified in this test?
inactive
